Value source: paper PMC8001668

Tested on: MDA-MB-231 cells
assay-overview: In vitro cytotoxicity, MTT assay
Format: cell-based, Human
measurement-parameters: Homo sapiens, MDA-MB-231, 24 h
metric: IC50 (µM)
Report the value in µM with no unit label.

Ask: Param item = `Cc1nc(Nc2ncc(C(=O)Nc3c(C)cccc3Cl)s2)cc(N2CCN(CCO)CC2)n1` ; retrieve measured IC50.
Reply: 73.6
